System: SF-295 CNS
measurement notes: NCI tumour cell line growth inhibition, 48 h
// reported TGI for each item listed
Respond numerically; units are µM and should not be typed.

Illustrative cases are given below, each with its answer.
Req: Kindly state the measured TGI obtained for C=C1C(=O)O[C@H]2[C@H]1CC/C(Cn1cc(-c3ccccc3C(F)(F)F)nn1)=C\CC[C@@]1(C)O[C@@H]21 with SF-295 CNS.
Resp: 22.6

Req: Same thing, different molecule: CC1OC(n2cc(F)c(=O)[nH]c2=O)C=CC1=O (stereo unspecified)
Resp: 31

Req: Same thing, different molecule: COc1ccc(SCc2cc(OCc3ccccc3)c(OCc3ccccc3)c(OCc3ccccc3)c2)cc1
Resp: 3.58

Turning now to a further record.
Req: Requested read-out TGI, target or system SF-295 CNS, entry CC1=C(C(=O)Nc2ccccc2)C2(CCCCC2)C(C#N)=C(SCC(=O)Nc2ccc(Br)cc2)N1
Resp: 28.9
